- Method Description: Binding affinity to 5'-FPu22T-3'-labelled c-myc G-quadruplex DNA (unknown origin) assessed as change in melting temperature by FRET assay
Please go through the items and note down their ΔTm.
// note: answer is a bare numeric in °C

// ΔTm value for CCN(CC)CCC(=O)Nc1ccc(Nc2nc(-c3ccccc3NC(=O)CCN(CC)CC)nc3ccccc23)cc1 : 19.6

// ΔTm value for CN(C)CCCNCCC(=O)Nc1ccc(Nc2nc(-c3ccccc3NC(=O)CCNCCCN(C)C)nc3ccccc23)cc1 : 21.8

// ΔTm value for CCN(CC)CCC(=O)Nc1cc(Cl)ccc1-c1nc(NCCCN(C)C)c2ccccc2n1 : 11.4

// ΔTm value for CCN(CC)CCCNCCC(=O)Nc1ccc(Nc2nc(-c3ccccc3NC(=O)CCNCCCN(CC)CC)nc3ccccc23)cc1 : 26.6

// ΔTm value for O=C(CN1CCOCC1)Nc1ccc(Nc2nc(-c3ccccc3NC(=O)CN3CCOCC3)nc3ccccc23)cc1 : 0.2

// ΔTm value for CCN(CC)CCCC(=O)Nc1ccc(Nc2nc(-c3ccccc3NC(=O)CCCN(CC)CC)nc3ccccc23)cc1 : 13.6

// ΔTm value for CN(C)CCCNCCC(=O)Nc1ccc(C(=O)Nc2cc(Cl)ccc2-c2nc(NCCCN(C)C)c3ccccc3n2)cc1 : 16.6

// ΔTm value for CCN(CC)CCC(=O)Nc1ccc(Nc2nc(-c3ccccc3)nc3ccccc23)cc1 : 4.6

---

- Method Description: Cytotoxicity against mouse primary mesangial cells assessed as reduction in cell viability after 48 hrs by MTT assay
- Assay type: toxicity
Please go through the items and note down their IC50 at 48 h.

// IC50 at 48 h value for O=C(CCN1CCOCC1)Nc1ccc(Nc2nc(-c3ccccc3NC(=O)CCN3CCOCC3)nc3ccccc23)cc1 : > 50 µM

// IC50 at 48 h value for CCN(CC)CCC(=O)Nc1ccc(Nc2nc(-c3ccccc3)nc3ccccc23)cc1 : 6.2 µM

// IC50 at 48 h value for CCN(CC)CC(=O)Nc1ccc(Nc2nc(Cl)nc3ccccc23)cc1 : > 50 µM

// IC50 at 48 h value for CN(C)CCNCCC(=O)Nc1ccc(Nc2nc(-c3ccccc3NC(=O)CCNCCN(C)C)nc3ccccc23)cc1 : > 50 µM

// IC50 at 48 h value for CCN(CC)CC(=O)Nc1ccc(Nc2nc(N(CC)CC)nc3ccccc23)cc1 : 10.2 µM

// IC50 at 48 h value for CCN(CC)CCCC(=O)Nc1ccc(Nc2nc(-c3ccccc3NC(=O)CCCN(CC)CC)nc3ccccc23)cc1 : > 50 µM

// IC50 at 48 h value for CCN(CC)CC(=O)Nc1ccc(Nc2nc(-c3ccc(O)cc3)nc3ccccc23)cc1 : 12.9 µM

// IC50 at 48 h value for CN1CCN(CCC(=O)Nc2ccc(Nc3nc(-c4ccccc4NC(=O)CCN4CCN(C)CC4)nc4ccccc34)cc2)CC1 : > 50 µM

// IC50 at 48 h value for O=C(CN1CCOCC1)Nc1ccc(Nc2nc(-c3ccccc3NC(=O)CN3CCOCC3)nc3ccccc23)cc1 : > 50 µM

---

Please go through the items and note down their ΔTm.
- Method Description: Binding affinity to F10T duplex DNA (unknown origin) assessed as change in melting temperature by FRET assay
// note: answer is a bare numeric in °C

// ΔTm value for CN1CCN(CCC(=O)Nc2ccc(Nc3nc(-c4ccccc4NC(=O)CCN4CCN(C)CC4)nc4ccccc34)cc2)CC1 : 0.3

// ΔTm value for CCN(CC)CC(=O)Nc1ccc(Nc2nc(-c3ccccc3NC(=O)CN(CC)CC)nc3ccccc23)cc1 : 0.3

// ΔTm value for O=C(CCN1CCOCC1)Nc1ccc(Nc2nc(-c3ccccc3NC(=O)CCN3CCOCC3)nc3ccccc23)cc1 : 0.3

Origin of values: ChEMBL document CHEMBL3865800
